- Species on record: Rattus norvegicus
- Assay Text: Open TG-GATES - Regimen: Daily Repeat
- Format: toxicity, organism-based, Sprague-Dawley
- Design: regimen Daily Repeat, gender Male, age 6 weeks
- Assay Context: in vivo, po, 100 mg/kg, 72 h, tissue Kidney, route gavage, dose level Low, time 3 day
Readout Type: KIDNEY_R (g)
Return type: number; implicit unit g.

input: Give its KIDNEY_R value. Item: CNC(=C[N+](=O)[O-])NCCSCc1ccc(CN(C)C)o1
output: 1

input: Give its KIDNEY_R value. Item: COC(=O)C1=C(C)NC(C)=C(C(=O)OC)C1c1ccccc1[N+](=O)[O-]
output: 0.9

input: Give its KIDNEY_R value. Item: CN/C(=N/CCSCc1nc[nH]c1C)NC#N
output: 1

input: Give its KIDNEY_R value. Item: O=C(OC[C@H]1O[C@@H](OC(=O)c2cc(O)c(O)c(OC(=O)c3cc(O)c(O)c(O)c3)c2)[C@H](OC(=O)c2cc(O)c(O)c(OC(=O)c3cc(O)c(O)c(O)c3)c2)[C@@H](OC(=O)c2cc(O)c(O)c(OC(=O)c3cc(O)c(O)c(O)c3)c2)[C@@H]1OC(=O)c1cc(O)c(O)c(OC(=O)c2cc(O)c(O)c(O)c2)c1)c1cc(O)c(O)c(OC(=O)c2cc(O)c(O)c(O)c2)c1
output: 1

input: Give its KIDNEY_R value. Item: Cc1nnc2n1-c1ccc(Cl)cc1C(c1ccccc1Cl)=NC2
output: 1

input: Give its KIDNEY_R value. Item: CCOc1ccc(NC(C)=O)cc1
output: 1
